# assayed-target: Type-1 angiotensin II receptor (Homo sapiens)
# Sequence (P30556 whole entry): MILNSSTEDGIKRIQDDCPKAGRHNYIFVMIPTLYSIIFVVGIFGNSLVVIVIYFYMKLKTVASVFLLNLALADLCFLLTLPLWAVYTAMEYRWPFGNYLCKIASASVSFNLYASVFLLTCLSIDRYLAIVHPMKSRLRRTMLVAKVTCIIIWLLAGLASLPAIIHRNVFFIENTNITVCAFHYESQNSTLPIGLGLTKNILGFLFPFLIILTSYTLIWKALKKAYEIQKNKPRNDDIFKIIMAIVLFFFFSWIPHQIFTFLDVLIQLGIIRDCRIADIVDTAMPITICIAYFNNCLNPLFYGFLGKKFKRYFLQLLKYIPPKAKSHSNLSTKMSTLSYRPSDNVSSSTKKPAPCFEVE
# test-name: Displacement of [125I-Sar1-Ile8]-ANG2 from human Angiotensin 2 type-1 receptor expressed in HEK293 cells after 1 hr by gamma counting analysis
measurement-type: IC50 (nM)
Give bare numbers, in nM.

Look over these answered cases.
1. CCCCc1c[n+](Cc2ccc(-c3ccccc3-c3nn[n-]n3)cc2)cn1Cc1ccc(-c2ccccc2-c2nn[n-]n2)cc1.[Br-].[Na+].[Na+] = 2.88
2. CCCCc1c[n+](Cc2ccc(-c3ccccc3-c3nn[nH]n3)cc2)cn1Cc1ccc(-c2ccccc2-c2nn[nH]n2)cc1 = 0.347
3. CCCCc1c(Cl)[n+](Cc2ccc(-c3ccccc3-c3nn[nH]n3)cc2)c(CO)n1Cc1ccc(-c2ccccc2-c2nn[nH]n2)cc1 = 6460

Consider now this further compound.
Data request: State its IC50 on Type-1 angiotensin II receptor (Homo sapiens): `CCCCc1c[n+](Cc2ccc(-c3ccccc3-c3nn[nH]n3)cc2)c(CO)n1Cc1ccc(-c2ccccc2-c2nn[nH]n2)cc1.[Br-]`
Data returned: 4.27
